- tested.system: T1, Cynomolgus monkey glycophorin A on Cynomolgus monkey red blood cells or red blood cell membranes (Cynomolgus monkey)
- T1 construct: whole, on cells; also called Cyno RBC; Cynomolgus monkey RBC membranes
- method.notes: Fab on intact cyno RBC, unbound Fab by ELISA; 60 min after 200-fold dilution
value.type: percentage of input antibody bound (%)
Use % as the unit, but write only the number.

Please review the following examples before continuing.
| binder | percentage of input antibody bound [%] |
| --- | --- |
| TPP-7795, affinity matured 6C12 Fab (Fab, V domains shown, Tested as Fab) VH: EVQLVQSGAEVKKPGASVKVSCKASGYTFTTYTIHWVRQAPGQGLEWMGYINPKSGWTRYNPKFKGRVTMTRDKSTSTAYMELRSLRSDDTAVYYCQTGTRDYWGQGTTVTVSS VL: DIQLTQSPSFLSASVGDRVTITCRASSSVSYIYWFQQKPGKAPKLLIYATSFLQSGVPSRFSGSGSGTEYTLTISSLQPEDFATYYCHQRNSFPYTFGQGTKLEIK | 29 |
| TPP-7782, affinity matured 6C12 Fab (Fab, V domains shown, Tested as Fab) VH: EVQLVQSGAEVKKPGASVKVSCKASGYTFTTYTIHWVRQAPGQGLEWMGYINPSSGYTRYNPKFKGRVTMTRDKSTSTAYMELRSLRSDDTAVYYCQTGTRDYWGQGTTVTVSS VL: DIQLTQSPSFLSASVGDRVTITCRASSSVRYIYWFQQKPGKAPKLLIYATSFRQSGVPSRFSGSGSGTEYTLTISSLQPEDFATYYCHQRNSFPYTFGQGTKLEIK | 57 |

We next turn to a different binder, shown below.
Data point: TPP-7778, affinity matured 6C12 Fab (Fab, V domains shown, Tested as Fab) VH: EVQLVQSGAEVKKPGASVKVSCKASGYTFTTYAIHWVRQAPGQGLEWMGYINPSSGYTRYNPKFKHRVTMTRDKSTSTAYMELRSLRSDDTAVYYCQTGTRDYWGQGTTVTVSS VL: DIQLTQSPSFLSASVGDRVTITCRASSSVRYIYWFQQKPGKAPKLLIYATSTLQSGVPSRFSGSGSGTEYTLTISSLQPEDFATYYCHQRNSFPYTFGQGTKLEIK ; percentage of input antibody bound = 36
